Answer each item with its documented growth.
Tested on: CCRF-CEM leukemia
Assay: NCI-60 one-dose screen, 48 h (100 = growth as untreated, 0 = no growth, -100 = all killed)
Settings: 10 µM unless noted
This is part of a sample that, as a whole, favours compounds with a hit. Of some 83,000 tested, about 20% had one in any assay.
Answers are plain numbers, in %.

Consider the worked cases shown below.
[[record]]
line_notation = "COc1ccc(C(=O)c2cc(C)c(OC)c(C)c2)c(OC)c1N(C(=O)CCl)C(=O)CCl"
assay_target = "CCRF-CEM leukemia"
assay_result = 8.61

[[record]]
line_notation = "Cc1nc2sccn2c1-c1cn2ccsc2n1"
assay_target = "CCRF-CEM leukemia"
assay_result = 96.3


For each listed entry, give its growth.
1. C/C(=N\Nc1cc(C)nc2ccc(Br)cc12)c1ccc([N+](=O)[O-])cc1
2. CCCCCN1C=C/C(=C\C(=O)N(C)c2ccc(OC(F)(F)F)cc2)c2ccccc21
3. Nc1c(C(=O)Nc2cccc3cnccc23)sc2nc3c(cc12)CN(Cc1ccccc1)CC3

Reply:
1: 13.5; 2: 104; 3: 109
